Test system: HCT-116 colon
methodNotes: NCI tumour cell line growth inhibition, 48 h; in the data active = GI50 below about 0.43 µM; inactive = the rest
Outcomes: active, inactive

COc1ccc(-c2ccc(C3CC(c4ccc(O)cc4)=NN3)o2)c([N+](=O)[O-])c1 (stereo not drawn); inactive
C=C1C(=O)O[C@@H]2C[C@@H]1CC[C@]1(C)O[C@H]1CC[C@@]1(C)O[C@@H]1CC[C@@]2(C)O; inactive
Oc1c(CN2CCC(N3CCOCC3)CC2)cc(Cc2cc(CN3CCC(N4CCOCC4)CC3)c(O)c3ncccc23)c2cccnc12; active

###

Quick reference: GI50 of the listed items.
Tested on: ACHN renal
methodNotes: NCI tumour cell line growth inhibition, 48 h
observable: GI50

CC/C=C\C[C@H](O)C/C=C1/C(=O)C=C[C@@H]1C/C=C\CCCC(=O)NC(C)C; 1.84 µM
CN1CCN(Cc2ccc(-c3cc4ncnc(Nc5ccc(OCc6cccc(F)c6)c(Cl)c5)c4s3)o2)CC1; 3.26 µM
C=C1C(=O)O[C@H]2[C@H]1CC/C(COC(=O)C(=O)c1c[nH]c3ccccc13)=C\CC[C@@]1(C)O[C@@H]21; 2.13 µM

###

Tested on: BT-549 breast
methodNotes: NCI tumour cell line growth inhibition, 48 h; in the data active = GI50 below about 0.43 µM; inactive = the rest
Outcomes: 1 = active, 0 = inactive

C=C1C(=O)O[C@@H]2C[C@@H]1CC[C@]1(C)O[C@H]1CC[C@@]1(C)O[C@@H]1CC[C@@]2(C)O; 0
Cc1ccc(Nc2nc(NCCO)c3ccccc3n2)cc1C; 0
Nc1ccccc1C#CC#Cc1ccccc1N; 0
Oc1c(CN2CCC(N3CCOCC3)CC2)cc(Cc2cc(CN3CCC(N4CCOCC4)CC3)c(O)c3ncccc23)c2cccnc12; 0
COc1ccc(C(=O)Cn2c(C(=O)c3ccc(Cl)cc3)nc3ccccc32)cc1; 0
Nc1c(C(=O)Nc2ccccc2)sc2nc3c(cc12)CCCCCC3; 1
CN(C)CCNC(=O)c1ccc(Nc2nc3ccccc3c3occc23)cc1; 0
CC(C)C[C@H](NC(=O)[C@H](Cc1ccccc1)n1ccc(N2CCCCC2)cc1=O)B(O)O; 1
CCC1=C(C)/C(=C/c2[nH]c(C)c(C(=O)CCCCC(=O)OC)c2C)N=C1c1ccc[nH]1; 0
COc1ccc(C(=O)/C=C/c2ccc(O)c(O)c2F)c(OC)c1; 0

###

System: SK-MEL-28 melanoma
methodNotes: NCI tumour cell line growth inhibition, 48 h
Quick reference: GI50 of the listed items.
observable: GI50

CC1=C(C)C(=O)c2c(c(C(=O)c3ccccc3)c3nc4ccccc4n3c2C)C1=O; > 100 µM
O=C1/C(=C/c2cccc([N+](=O)[O-])c2)COc2ccc(O)c(O)c21; 1.56 µM
O=C(Nc1ccc(S(=O)(=O)Nc2nccs2)cc1)c1cccnc1Nc1cccc(Cl)c1; 17.8 µM
COc1ccc(C(=O)/C=C/c2ccc(O)c(O)c2F)c(OC)c1; 11.6 µM
CN(C)CCNC(=O)c1ccc(Nc2nc3ccccc3c3occc23)cc1; 16.5 µM

###

Quick reference: TGI of the listed items.
System: RPMI-8226 leukemia
methodNotes: NCI tumour cell line growth inhibition, 48 h
observable: TGI

Cn1c(=O)oc2cc(C(=O)CSC(=S)N3CCCCCC3)ccc21; > 100 µM
COc1ccc2c(c1)C(N)CC2=O (stereo unspecified); > 100 µM
CC(C)(C)[OH+][O-].[O-]c1ccc(Cl)cc1C=Nc1ccc(Cl)cc1[O-].[O]=[V]; > 100 µM
c1ccc(COc2ccc(CC3SCCCS3)cc2)cc1; > 100 µM
CNC(=S)/C(=N\Nc1nc[nH]c1C(N)=O)C(N)=S; 55.7 µM
N#CC1=C(N)Oc2cc3c(cc2C1c1cccs1)OCO3 (stereo unspecified); 40.7 µM

###

System: MDA-MB-435
methodNotes: NCI tumour cell line growth inhibition, 48 h
Quick reference: TGI of the listed items.
observable: TGI

CCCCCCCCC[C@@H]1C[C@@H]2CCC3C(C(=O)OC)=C(C)NC(=N1)N32 (stereo not given in full); 6.04 µM
COc1ccc(CN2C(=O)/C(=C\c3cc(OC)c(OC)c(OC)c3)c3cc(OC)ccc32)cc1; 8.88 µM
CCn1c(=O)c(-c2ccn[nH]2)cc2c(C)nc(N)nc21; > 100 µM
CCOC(=O)C1C(=O)CC(O)(OCC)C(C(=O)OCC)C1c1ccc(OC)cc1 (stereo not given); > 100 µM
S=c1ssc2c3ssc(=S)c3n(Cc3ccccc3)c12; > 100 µM
O=C1OC(c2ccco2)=N/C1=C\c1ccc(Cl)c(Cl)c1; > 100 µM
COc1cc(NS(C)(=O)=O)ccc1NCc1cnc2ccc3[nH]c(C)ccc3c12; 80.4 µM
O=C1c2ccccc2-c2c1c1ccccc1c(=O)n2CCCNCCCn1c2c(c3ccccc3c1=O)C(=O)c1ccccc1-2; 22.9 µM
CN(C)/[N+]([O-])=N/Oc1cc(Nc2cccc(C(=O)O)c2)c([N+](=O)[O-])cc1[N+](=O)[O-]; > 100 µM
CSC(SC)=C1CC(=O)Nc2ccccc2C1=O; > 100 µM
CC(=O)ON(OC(C)=O)c1ccc(C)cc1; > 100 µM
CN(N=O)C(=O)Nc1c[nH]c(=O)[nH]c1=O; > 100 µM
CC1=C(C)C(=O)c2c(c(C(=O)c3ccccc3)c3nc4ccccc4n3c2C)C1=O; > 100 µM
OC1(c2ccccc2)CC2CCC(C1)N2CCc1ccccc1 (stereo not given); > 100 µM
CC1=C(/C=C/C(C)=C/C=C/C(C)=C/C(=O)OCC2OC(n3cc(F)c(=O)[nH]c3=O)CC2OC(=O)/C=C(C)/C=C/C=C(C)/C=C/C2=C(C)CCCC2(C)C)C(C)(C)CCC1 (stereo not given); > 65.8 µM
Cc1ccc(C)c(NC(=O)C(=O)C(c2cnc3ccc([N+](=O)[O-])cc3n2)[N+](=O)[O-])c1 (stereo not given); > 100 µM
O=c1[nH]c2ccc(C(F)(F)F)cc2nc1-c1ccccc1; > 100 µM
CS(=O)(=O)c1ccc(Oc2cc(F)cc(C#N)c2)c2c1[C@H](O)[C@H](F)[C@@H]2F; > 100 µM
COC(CN(C)C(=O)C(C)NC(=O)c1ccccc1)OC (stereo not given); > 100 µM
COc1ccc(-c2ccc(C3CC(c4ccc(O)cc4)=NN3)o2)c([N+](=O)[O-])c1 (stereo not given); > 100 µM

###

Tested on: OVCAR-8 ovarian
methodNotes: NCI tumour cell line growth inhibition, 48 h
Quick reference: GI50 of the listed items.
observable: GI50

CC1=C(C)C(=O)c2c(c(C(=O)c3ccccc3)c3nc4ccccc4n3c2C)C1=O; 39.7 µM
C=C1C(=O)O[C@H]2[C@H]1CC/C(COC(=O)C(=O)c1c[nH]c3ccccc13)=C\CC[C@@]1(C)O[C@@H]21; 3.14 µM
Nc1ccccc1C#CC#Cc1ccccc1N; 28.7 µM
COc1ccc(C(=O)/C=C/c2ccc(O)c(O)c2F)c(OC)c1; 8.81 µM
Nc1c(C(=O)Nc2ccccc2)sc2nc3c(cc12)CCCCCC3; 0.478 µM

###

Quick reference: TGI of the listed items.
Tested on: A549 NSCLC
methodNotes: NCI tumour cell line growth inhibition, 48 h
observable: TGI

NC(=S)/N=C/c1c(O)c2ccccc2oc1=O; > 100 µM
CCOC(=O)c1c(C)n(Cc2ccccc2)c(=O)c2ccccc2c(=O)c2c(=O)ccc(=O)c1=2; > 100 µM
CC(=O)/C(C=Nc1c(C)n(C)n(-c2ccccc2)c1=O)=C(/C)O; > 100 µM
NC(=O)NC(=O)c1cnccn1; > 100 µM
CSc1ccc2c(cc1=O)[C@@H](NC(C)=O)CCc1cc(O)c(O)c(O)c1-2; 45 µM
CCOc1c2ccsc2c(OCC)c2ccsc12; > 100 µM

###

System: SNB-19 CNS
methodNotes: NCI tumour cell line growth inhibition, 48 h
observable: GI50

O=C(Nc1ccc(Cl)c([N+](=O)[O-])c1)Nc1nc2ccccc2s1; 4.87 µM
CNc1ccccc1C(=O)N/N=C/C=C/c1ccccc1; 7.01 µM
Cn1c(C(N)=O)cc2c1-c1nc(Nc3ccccc3)ncc1CCC2; 11.5 µM
CCCCCCCCCCCCN1C(C)=CS/C1=C\C=C\c1scc(C)[n+]1CCCCCCCCCCCC; 1.91 µM
COc1ccc(C(=O)Cn2c(C(=O)c3ccc(OC)cc3)nc3ccccc32)cc1; 4.37 µM
CCn1c(=O)c(-c2ccn[nH]2)cc2c(C)nc(N)nc21; 4.57 µM
COc1ccc(C(=O)/C=C/c2ccc(O)c(O)c2F)c(OC)c1; 10.7 µM
CN1CCN(Cc2ccc(-c3cc4ncnc(Nc5ccc(OCc6cccc(F)c6)c(Cl)c5)c4s3)o2)CC1; 4.8 µM
O=[N+]([O-])c1cnc(Sc2ccncn2)c([N+](=O)[O-])c1; 32.8 µM

###

Tested on: OVCAR-4 ovarian
methodNotes: NCI tumour cell line growth inhibition, 48 h
observable: GI50

Nc1ccccc1C#CC#Cc1ccccc1N; 23.7 µM
CS(=O)(=O)c1ccc(Oc2cc(F)cc(C#N)c2)c2c1[C@H](O)[C@H](F)[C@@H]2F; > 100 µM
O=C(Nc1ccc(S(=O)(=O)Nc2nccs2)cc1)c1cccnc1Nc1cccc(Cl)c1; 16.3 µM
O=C1c2ccccc2-c2c1c1ccccc1c(=O)n2CCCNCCCn1c2c(c3ccccc3c1=O)C(=O)c1ccccc1-2; 3.2 µM
C=C1C(=O)O[C@@H]2C[C@@H]1CC[C@]1(C)O[C@H]1CC[C@@]1(C)O[C@@H]1CC[C@@]2(C)O; 13.7 µM
CN(C)CCNC(=O)c1ccc(Nc2nc3ccccc3c3occc23)cc1; 26.7 µM
OCCN(CCO)N=Nc1ccc(-c2nc3ccccc3[nH]2)cc1; 15.9 µM
CC(C)C[C@H](NC(=O)[C@H](Cc1ccccc1)n1ccc(N2CCCCC2)cc1=O)B(O)O; 2.06 µM
